- Study Target: T1, AFP158/HLA-A*02:01 complex (human)
- T1 construct: flowed as analyte in SPR
- Test Description: SPR, fold vs AS170036 VL1VH1;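 also: crude scFv muteins immobilised on a sensor chip, peptide–MHC complex passed over at several concentrations, binding then buffer-driven dissociation, KD estimated from on- and off-rates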
Readout Type: Affinity increase (fold)
Record the value in fold, omitting the unit from your answer.

AS170036 VL1VH1-56N98Q108D (scFv, also called 56-AS170036 VL1VH1-56N98Q108D) scFv: QSALTQPRSVSGSPGQSVTISCAGTSSDVGSENYVSWYQQHPGKAPKLMIYQVNKRASGVPDRFSGSKSGNTASLTISGLQAEDEADYYCASYRSSDQNIVFGGGTKLTVLGGGGSGGGGSGGGGSEVQLVESGGGLVQPGGSLRLSCAASGFTFSSYAMSWVRQAPGKGLEWVSTINSGTNSPYYADSVKGRFTISRDNSKNTLYLQMNSLRAEDTAVYYCAKNFFDGSWFLDPPAMDYWGQGTLVTVSSHHHHHH :: 39.1
AS170036 VL1VH1-57K98Q108A (scFv, also called 73-AS170036 VL1VH1-57K98Q108A) scFv: QSALTQPRSVSGSPGQSVTISCAGTSSDVGSENYVSWYQQHPGKAPKLMIYQVNKRASGVPDRFSGSKSGNTASLTISGLQAEDEADYYCASYRSSDQNIVFGGGTKLTVLGGGGSGGGGSGGGGSEVQLVESGGGLVQPGGSLRLSCAASGFTFSSYAMSWVRQAPGKGLEWVSTINSGTGKPYYADSVKGRFTISRDNSKNTLYLQMNSLRAEDTAVYYCAKNFFDGSWFLAPPAMDYWGQGTLVTVSSHHHHHH :: 80.4

Okay, now this binder:
Q. Form field: reported Affinity increase of AS170036 VL1VH1-57K98Q108D (scFv, also called 74-AS170036 VL1VH1-57K98Q108D) scFv: QSALTQPRSVSGSPGQSVTISCAGTSSDVGSENYVSWYQQHPGKAPKLMIYQVNKRASGVPDRFSGSKSGNTASLTISGLQAEDEADYYCASYRSSDQNIVFGGGTKLTVLGGGGSGGGGSGGGGSEVQLVESGGGLVQPGGSLRLSCAASGFTFSSYAMSWVRQAPGKGLEWVSTINSGTGKPYYADSVKGRFTISRDNSKNTLYLQMNSLRAEDTAVYYCAKNFFDGSWFLDPPAMDYWGQGTLVTVSSHHHHHH
A. 58.7
